Measured values drawn from PubChem BioAssay (NCI) for this set.

System: NCI-H460 lung
EXPERIMENT: NCI-60 one-dose screen, 48 h (100 = growth as untreated, 0 = no growth, -100 = all killed)
TEST SETTINGS: 10 µM unless noted
The panel holds about 83,000 compounds, 20% with a hit somewhere; the sample as a whole holds those more often.
Please note: growth exactly at 90% is rule not met. Only values below 90% get rule met.

Known results for compounds:
O=C(O)CCN1C(=O)/C(=C/C(Cl)=C/c2ccccc2)SC1=S: rule met
CNC(=O)c1ccccc1Oc1nc(Nc2cc(OC)c(OC)c(OC)c2)ncc1Br: rule met

## Task Field: below-cutoff. Rule: recorded growth strictly less than 90%. Subject: Nc1n[nH]c2cccc(C#Cc3cccc(C(=O)Nc4cc(C(F)(F)F)cc(C(F)(F)F)c4)c3)c12
## Result rule met

## Task Report whether reported growth is lower than 90% (strictly) for O=C1/C(=C\c2ccc3nccnc3c2)SC(=S)N1CCc1ccc(O)cc1
## Result rule not met

## Task Lab note: confirm whether the reported growth for this compound is below 90%, equality not counting. compound: O=C1/C(=C/c2ccc([N+](=O)[O-])cc2)COc2ccc(O)cc21
## Result rule not met

## Task Lab log: compare recorded growth with 90%; is it strictly lower for CCOc1ccccc1Cn1ccnc1CCc1c(Cl)c(O)cc(O)c1C(=O)OC ?
## Result rule not met

## Task Record N#Cc1c(-c2ccccc2)cc(-c2ccccc2)n(CCCC(=O)Nc2ccccc2N)c1=O : is its growth strictly below 90%?
## Result rule met

## Task Input CC/C=C\C[C@H](O)C/C=C1/C(=O)C=C[C@@H]1C/C=C\CCCC(=O)N(C)C ; condition: growth strictly below 90%. Does it hold?
## Result rule met

## Task Consider COCCOc1cc2ncnc(N3CCN(c4cc(S(C)(=O)=O)c(C)cc4Cl)CC3)c2cc1OCCOC . Does its growth lie strictly below 90%?
## Result rule not met
